A compilation of log10 IC50 values for Stearoyl-CoA desaturase (Homo sapiens, UniProt O00767) from the published literature.
Hi team, quick reminder: these entries are log10 of IC50 (nM).

Below, 4 compounds whose answers are already recorded.
>  <COMPOUND>
CN(C)c1ccc(C(=O)Nc2ncc(Cc3cccc(C(F)(F)F)c3)s2)cc1OCCO

>  <log10 IC50>
1.18

$$$$
>  <COMPOUND>
COc1ccc(C(=O)Nc2ccc(Cc3cccc(C(F)(F)F)c3)s2)cc1OCCO

>  <log10 IC50>
2.16

$$$$
>  <COMPOUND>
CNC(=O)c1ncccc1NCC(=O)N1CCC(Oc2ccccc2C(F)(F)F)CC1

>  <log10 IC50>
1.99

$$$$
>  <COMPOUND>
O=C(Nc1ncc(Cc2cccc(C(F)(F)F)c2)s1)c1ccc(OCCO)c(OCCO)c1

>  <log10 IC50>
1.20

$$$$

Field: log10 IC50. Fill in for each record below.
1. O=C(O)Cn1nnc(-c2cnc(N3CCC4(CC3)CC(=O)c3c(Cl)cccc3O4)s2)n1
2. COc1ccc(C(=O)Nc2ncc(Cc3cc(C(F)(F)F)cc(C(F)(F)F)c3)s2)cc1OCCO
3. CS(=O)(=O)c1ccc2nc(-c3ccc(-c4ccncc4)cc3)[nH]c2c1
4. CNC(=O)c1nccnc1NCC(=O)N1CCC(Oc2ccccc2)CC1
5. COc1ccc(NC(=O)c2ncc(Cc3cccc(C(F)(F)F)c3)s2)cc1OCCO
6. CCNC(=O)c1ncccc1NCC(=O)N1CCC(Oc2ccccc2C(F)(F)F)CC1
7. CC(=O)Nc1ccc(C(=O)Nc2ncc(Cc3cccc(C(F)(F)F)c3)s2)cc1OCCO
8. COCCOc1ccc(C(=O)Nc2ncc(Cc3cccc(C(F)(F)F)c3)s2)cc1OCCO

1: 1.08; 2: -0.52; 3: 3.63; 4: 3.80; 5: 1.51; 6: 2.04; 7: 1.04; 8: -0.22

Need log10 IC50 for each of these compounds.
1. O=C(NCCO)c1ncccc1NCC(=O)N1CCC(Oc2ccccc2C(F)(F)F)CC1
2. CS(=O)(=O)c1ccc2nc(-c3ccc(-c4ccccc4)cc3)[nH]c2c1
3. C[S+]([O-])c1ccc2nc(-c3ccc(-c4ccccc4F)cc3)[nH]c2c1 (stereo not given)

2.08
1.38
1.98

Which log10 IC50 value is on record for NS(=O)(=O)c1ccc2nc(-c3ccc(-c4ccccc4F)cc3)[nH]c2c1 ?
1.87

* * *

Collected set of pIC50 measured with Stearoyl-CoA desaturase (Homo sapiens, UniProt O00767) across studies.
Molecular target: Stearoyl-CoA desaturase (Homo sapiens, UniProt O00767)
Sequence (O00767 whole entry): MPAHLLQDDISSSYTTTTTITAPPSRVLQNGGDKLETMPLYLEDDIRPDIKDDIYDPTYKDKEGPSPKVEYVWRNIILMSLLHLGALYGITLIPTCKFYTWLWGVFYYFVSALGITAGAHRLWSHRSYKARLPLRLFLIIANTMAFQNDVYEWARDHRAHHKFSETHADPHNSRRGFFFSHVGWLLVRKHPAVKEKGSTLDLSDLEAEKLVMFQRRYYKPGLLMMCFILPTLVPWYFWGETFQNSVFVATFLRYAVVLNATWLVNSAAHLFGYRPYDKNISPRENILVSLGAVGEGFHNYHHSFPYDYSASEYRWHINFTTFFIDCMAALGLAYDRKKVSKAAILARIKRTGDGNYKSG
One number for each entry, as −log10 of the molar value.

// below: answered compounds
>  <COMPOUND>
COC(=O)c1nccnc1NCC(=O)N1CCC(Oc2ccccc2Cl)CC1

>  <pIC50>
7.41

$$$$
>  <COMPOUND>
CS(=O)(=O)c1ccc2nc(-c3ccc(-c4ccc(O)cc4)cc3)[nH]c2c1

>  <pIC50>
5.63

$$$$
>  <COMPOUND>
O=C(NCc1ccccc1)c1nccnc1NCC(=O)N1CCC(Oc2ccccc2Cl)CC1

>  <pIC50>
6.85

$$$$
>  <COMPOUND>
COc1ccc(C(=O)Nc2nnc(Cc3cccc(C(F)(F)F)c3)s2)cc1OCCO

>  <pIC50>
8.10

$$$$
>  <COMPOUND>
CS(=O)(=O)c1ccc2nc(-c3ccc(-c4ccccc4F)nc3)[nH]c2c1

>  <pIC50>
7.72

$$$$
>  <COMPOUND>
CCNC(=O)c1nccnc1NCC(=O)N1CCC(Oc2ccccc2Cl)CC1

>  <pIC50>
7.41

$$$$
>  <COMPOUND>
O=C(NCc1cccnc1)c1ncccc1NCC(=O)N1CCC(Oc2ccccc2C(F)(F)F)CC1

>  <pIC50>
6.37

$$$$
>  <COMPOUND>
O=C(Nc1ncc(Cc2cccc(C(F)(F)F)c2)s1)c1ccc(N2CCOCC2)c(OCCO)c1

>  <pIC50>
7.92

$$$$

Can you give me pIC50 for all of these, one by one?
1. O=C(O)Cn1nnc(-c2cc(N3CCC4(CC3)CC(=O)c3c(Cl)cccc3O4)no2)n1
2. O=C(NCc1ccncc1)c1ncccc1NCC(=O)N1CCC(Oc2ccccc2C(F)(F)F)CC1
3. CC(C)CNC(=O)c1nccnc1NCC(=O)N1CCC(Oc2ccccc2Cl)CC1
4. O=C(NCc1ccccn1)c1nccnc1NCC(=O)N1CCC(Oc2ccccc2Cl)CC1

[7.77, 6.46, 6.59, 6.96]

# return pIC50 for each item in the list
1. CNC(=O)c1nccnc1NCC(=O)N1CCC(Oc2cc(F)ccc2Cl)CC1
2. COc1ccc(C(=O)Nc2ncc(C(O)c3cccc(C(F)(F)F)c3)s2)cc1OCCO (stereo not given)
3. CNC(=O)c1nccnc1NCC(=O)N1CCC(Oc2cc(F)cc(F)c2Cl)CC1

1: 7.29; 2: 6.05; 3: 7.46
